# Assay Explanation: Acute toxicity
# Experimental Conditions: both sexes, mouse, in vivo; NMRI mice, ip., cumulative lethality on day 7, maximal dose 300 mg/kg; read-out: Appr- LD50 ip.
Measured Endpoint: LD50 at 7 day (mg/kg)
Express your answer in mg/kg, writing the number without its unit.

Which value of LD50 at 7 day has been reported for CC1=NN=C(c2ccc(N)cc2)c2cc3c(cc2C1)OCO3 [“A”, reference compound] in the records?
392

====

// values below are reported LD50 at 7 day
# Assay Explanation: Acute toxicity
# Experimental Conditions: both sexes, NMRI, mouse, in vivo, ip, 300 mg/kg

| Molecule | LD50 at 7 day |
| --- | --- |
| CC1(C#N)Cc2cc3c(cc2C(c2ccc(N)cc2)=NN1C(=O)CCNCCN1CCOCC1)OCO3 (racemic) | ~300 mg/kg |

Name the reported LD50 at 7 day value associated with the molecule CC1(C#N)Cc2cc3c(cc2C(c2ccc([N+](=O)[O-])cc2)=NN1C(=O)CCl)OCO3 (racemic)
~300 mg/kg
